Measured Percent Inhibition of individual entries
- Tested on: CCF-STTG1
- MEASUREMENT PROTOCOL: Cell panel screen (CellTiter-Glo)
- Type: cell-based, human
- EXPERIMENTAL CONTEXT: CCF-STTG1 (Brain), 20 micromolar, 72 hrs
Expressed in %, but write only the number.

These solved cases illustrate the format of a correct answer.
COc1c(CC=C(C)C)cc2c(=O)c3c(O)cc(O)cc3oc2c1OC [gl-6] :: 45
COC(=O)C1OC(Oc2cc(O)c3c(=O)cc(-c4ccc(O)cc4)oc3c2)C(O)C(O)C1O (stereo not shown) [WZ-6] :: -3
CC1(C)C=Cc2c(cc(O)c3c(=O)c4cc5c(c(O)c4oc23)OC(C)(C)C=C5)O1 [Go-16] :: 22

Now examine the next entry.
[ask] Consider the molecule shown here: O=C1c2c(O)cc(O)cc2OC(c2ccc(O)cc2)C1c1c(O)cc(O)c2c(=O)cc(-c3ccc(O)c(O)c3)oc12 (stereo not shown) [WZ-4] What is its recorded Percent Inhibition?
[reply] 0

* * *

- Test system: HCC1569
- MEASUREMENT PROTOCOL: Cell panel screen (CellTiter-Glo)
- Type: cell-based, human
- EXPERIMENTAL CONTEXT: HCC1569 (Breast), 20 micromolar, 72 hrs
- Procedure: All cells were obtained from the cell bank of the American Type Culture Collection (ATCC) and cultured in the supplier's recommended media supplemented with 10% FBS. The cell panel screen was measured using the CellTiter-Glo assay (Promega, Madison, WI) following a standard protocol. […] The plate was then read on a FlexStation 3 microplate luminometer (Molecular Devices, USA) to monitor the luminescence signal generated by the luciferase-catalyzed reaction of luciferin and ATP. […]
Criterion: Percent Inhibition strictly under 10%. Met: condition met. Not met: condition not met.

Reference set, count: 4
CCOC(=O)C1OC(Oc2cc(O)c3c(c2)OC(c2ccc(O)c(O)c2)CC3=O)C(O)C(O)C1O (stereo not drawn) [gly-3] :: condition met
COc1cc(O)c2c(=O)c3c(CC=C(C)C)cc(O)c(O)c3oc2c1CC=C(C)CCC=C(C)C [Go-23] :: condition not met
COc1c(O)c(O)c2c(=O)c3c(CC=C(C)C)c(CC=C(C)C)c(O)c(O)c3oc2c1CC=C(C)C [Compound N-7] :: condition met
CC(C)=CCc1c(O)cc(O)c2c1O[C@]13C(=C[C@@H]4C[C@H]1C(C)(C)O[C@@]3(CC=C(C)C)C4=O)C2=O [GB35] :: condition not met

[ask] Is the reported Percent Inhibition for COc1c(CC=C(C)C)cc2c(=O)c3c(O)cc(O)cc3oc2c1O [gl-16] strictly below 10%?
[reply] condition not met

[ask] Now give it for CC(C)=CCc1c(O)cc2oc3ccc(O)cc3c(=O)c2c1O [Ge-1] too.
[reply] condition not met

[ask] Now give it for O=C(c1ccc(O)c(O)c1)c1c(O)cc(O)cc1O [gl-25] too.
[reply] condition met

[ask] Now give it for COc1c(CC=C(C)C)cc2c(=O)c3c(O)cc(O)cc3oc2c1OC [gl-6] too.
[reply] condition not met

[ask] Now give it for COc1c(CC=C(C)C)c(O)c2c(=O)c3ccc(O)c(O)c3oc2c1CC=C(C)C [gl-9] too.
[reply] condition not met

[ask] Now give it for O=c1c2ccc(O)c(O)c2oc2cccc(O)c12 [gl-23] too.
[reply] condition met

[ask] Now give it for CC(C)=CCc1c2c(c(O)c3c(=O)c4c(CC=C(C)C)c(O)c(O)cc4oc13)C=CC(C)(C)O2 [bn-4, Bannaxanthone D] too.
[reply] condition not met

[ask] Now give it for CC(C)=CCCC1(C)C=Cc2c(O)c3c(c(CC=C(C)C)c2O1)OC12C(=CC4CC1C(C)(C)OC2(CC=C(C)C(=O)O)C4=O)C3=O (mixture of isomers) [GB14] too.
[reply] condition not met

[ask] Now give it for COc1cc(O)c2c(=O)c3cc(CC=C(C)C)c(O)c(O)c3oc2c1CC=C(C)C [Go-15] too.
[reply] condition not met

[ask] Now give it for O=C1c2c(O)cc(O)cc2OC(c2ccc(O)c(O)c2)C1O (stereo not drawn) [gl-34] too.
[reply] condition met
